- target.entity: T1, SYCE2-TEX12core, labelled (UniProt Q6PIF2 57-165; Q9BXU0 49-123, labelled with the Monolith NT Protein Labelling Kit RED (which chain is not told) | labelled with the Monolith NT Protein Labelling Kit RED (which chain is not told))
- T1 construct: SYCE2 structural core; TEX12 structural core; source: E. coli BL21(DE3), purified
- T1 sequence (looked up) 1: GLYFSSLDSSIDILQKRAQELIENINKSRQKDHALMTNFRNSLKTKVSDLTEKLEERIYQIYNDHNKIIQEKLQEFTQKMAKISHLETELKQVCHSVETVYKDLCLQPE
- T1 sequence (looked up) 2: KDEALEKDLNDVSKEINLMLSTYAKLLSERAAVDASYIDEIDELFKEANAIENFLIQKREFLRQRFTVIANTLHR
- protocol.text: MST; SYCE3 titrated (1:1 dilutions) into 150 nM labelled SYCE2-TEX12core; Monolith NT.115, premium treated capillaries, excitation and MST power 40 %; apparent
- setup.conditions: both partners purified
measured.quantity: Kd (µM)
Record the value in µM, omitting the unit from your answer.

Entry SYCE3 (natural protein, UniProt A1L190 1-88, looked up, SYCE3, wild type; dimer alone by SEC-MALS; one chain in the 2:1 complex with SYCP1; also called SYCE3 wild-type; free SYCE3; source: alone or co-expressed with SYCP1 constructs; not shown: His, N-terminal, cleaved) MDDADPEERNYDNMLKMLSDLNKDLEKLLEEMEKISVQATWMAYDMVVMRTNPTLAESMRRLEDAFVNCKEEMEKNWQELLHETKQRL has what Kd?
21.8
